target (unweighted spectral count, OC43 Probe II capture): recorded values
- System: HCoV-OC43 gRNA and sgRNA
- Format: binding
- assay-conditions: 24 hpi; type n_24_v; tested against no-probe control; FDR<10%
I'd appreciate a reply containing only the number, no unit.

Solved cases (5 shown):
1) FBL: host protein, UniProt P22087 (protein, UniProt P22087 1-321, looked up) rRNA 2'-O-methyltransferase …: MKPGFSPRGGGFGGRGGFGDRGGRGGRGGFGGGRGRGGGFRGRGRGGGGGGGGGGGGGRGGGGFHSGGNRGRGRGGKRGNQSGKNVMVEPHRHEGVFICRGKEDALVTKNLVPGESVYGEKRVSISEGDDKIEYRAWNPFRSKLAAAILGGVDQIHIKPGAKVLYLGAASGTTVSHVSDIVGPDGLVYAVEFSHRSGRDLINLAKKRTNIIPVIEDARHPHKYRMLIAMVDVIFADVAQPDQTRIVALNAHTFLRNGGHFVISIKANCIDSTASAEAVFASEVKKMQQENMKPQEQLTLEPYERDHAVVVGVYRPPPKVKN; 4
2) SRSF5: host protein, UniProt Q13243 (protein, UniProt Q13243 1-272, looked up) Serine/arginine-rich splicing …: MSGCRVFIGRLNPAAREKDVERFFKGYGRIRDIDLKRGFGFVEFEDPRDADDAVYELDGKELCSERVTIEHARARSRGGRGRGRYSDRFSSRRPRNDRRNAPPVRTENRLIVENLSSRVSWQDLKDFMRQAGEVTFADAHRPKLNEGVVEFASYGDLKNAIEKLSGKEINGRKIKLIEGSKRHSRSRSRSRSRTRSSSRSRSRSRSRSRKSYSRSRSRSRSRSRSKSRSVSRSPVPEKSQKRGSSSRSKSPASVDRQRSRSRSRSRSVDSGN; 4
3) GRSF1 (protein, UniProt Q12849 118-480, looked up) G-rich sequence factor 1: SQESKTTYLEDLPPPPEYELAPSKLEEEVDDVFLIRAQGLPWSCTMEDVLNFFSDCRIRNGENGIHFLLNRDGKRRGDALIEMESEQDVQKALEKHRMYMGQRYVEVYEINNEDVDALMKSLQVKSSPVVNDGVVRLRGLPYSCNEKDIVDFFAGLNIVDITFVMDYRGRRKTGEAYVQFEEPEMANQALLKHREEIGNRYIEIFPSRRNEVRTHVGSYKGKKIASFPTAKYITEPEMVFEEHEVNEDIQPMTAFESEKEIELPKEVPEKLPEAADFGTTSSLHFVHMRGLPFQANAQDIINFFAPLKPVRITMEYSSSGKATGEADVHFETHEDAVAAMLKDRSHVHHRYIELFLNSCPKGK; 4
4) RBM4 (protein, UniProt Q9BWF3 1-364, looked up) RNA-binding protein 4: MVKLFIGNLPREATEQEIRSLFEQYGKVLECDIIKNYGFVHIEDKTAAEDAIRNLHHYKLHGVNINVEASKNKSKTSTKLHVGNISPTCTNKELRAKFEEYGPVIECDIVKDYAFVHMERAEDAVEAIRGLDNTEFQGKRMHVQLSTSRLRTAPGMGDQSGCYRCGKEGHWSKECPIDRSGRVADLTEQYNEQYGAVRTPYTMSYGDSLYYNNAYGALDAYYKRCRAARSYEAVAAAAASVYNYAEQTLSQLPQVQNTAMASHLTSTSLDPYDRHLLPTSGAAATAAAAAAAAAAVTAASTSYYGRDRSPLRRATAPVPTVGEGYGYGHESELSQASAAARNSLYDMARYEREQYADRARYSAF; 4
5) EDF1 (protein, UniProt O60869 2-148, looked up) Endothelial …: AESDWDTVTVLRKKGPTAAQAKSKQAILAAQRRGEDVETSKKWAAGQNKQHSITKNTAKLDRETEELHHDRVTLEVGKVIQQGRQSKGLTQKDLATKINEKPQVIADYESGRAIPNNQVLGKIERAIGLKLRGKDIGKPIEKGPRAK; 4

Prompt: In one line, give reported target (unweighted spectral count, OC43 Probe II capture) of the entry RBFOX2 (protein, UniProt O43251 1-390, looked up) RNA binding protein fox-1 …: MQNEPLTPGYHGFPARDSQGNQEPTTTPDAMVQPFTTIPFPPPPQNGIPTEYGVPHTQDYAGQTGEHNLTLYGSTQAHGEQSSNSPSTQNGSLTTEGGAQTDGQQSQTQSSENSESKSTPKRLHVSNIPFRFRDPDLRQMFGQFGKILDVEIIFNERGSKGFGFVTFENSADADRAREKLHGTVVEGRKIEVNNATARVMTNKKMVTPYANGWKLSPVVGAVYGPELYAASSFQADVSLGNDAAVPLSGRGGINTYIPLISLPLVPGFPYPTAATTAAAFRGAHLRGRGRTVYGAVRAVPPTAIPAYPGVVYQDGFYGADLYGGYAAYRYAQPATATAATAAAAAAAAYSDGYGRVYTADPYHALAPAASYGVGAVASLYRGGYSRFAPY .
Completion: 4

Prompt: In one line, give reported target (unweighted spectral count, OC43 Probe II capture) of the entry PABPN1 (protein, UniProt Q86U42 2-306, looked up) Polyadenylate-binding protein …: AAAAAAAAAAGAAGGRGSGPGRRRHLVPGAGGEAGEGAPGGAGDYGNGLESEELEPEELLLEPEPEPEPEEEPPRPRAPPGAPGPGPGSGAPGSQEEEEEPGLVEGDPGDGAIEDPELEAIKARVREMEEEAEKLKELQNEVEKQMNMSPPPGNAGPVIMSIEEKMEADARSIYVGNVDYGATAEELEAHFHGCGSVNRVTILCDKFSGHPKGFAYIEFSDKESVRTSLALDESLFRGRQIKVIPKRTNRPGISTTDRGFPRARYRARTTNYNSSRSRFYSGFNSRPRGRVYRGRARATSWYSPY .
Completion: 5

Prompt: In one line, give reported target (unweighted spectral count, OC43 Probe II capture) of the entry RBM3: host protein, UniProt P98179 (protein, UniProt P98179 1-157, looked up) RNA-binding protein 3: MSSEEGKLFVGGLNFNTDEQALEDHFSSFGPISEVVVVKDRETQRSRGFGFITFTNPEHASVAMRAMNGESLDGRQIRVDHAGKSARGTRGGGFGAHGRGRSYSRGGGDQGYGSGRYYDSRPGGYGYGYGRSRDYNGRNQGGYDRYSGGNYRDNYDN .
Completion: 6
